- target: Kappa-type opioid receptor (Homo sapiens, UniProt P41145)
- Sequence (P41145 whole entry): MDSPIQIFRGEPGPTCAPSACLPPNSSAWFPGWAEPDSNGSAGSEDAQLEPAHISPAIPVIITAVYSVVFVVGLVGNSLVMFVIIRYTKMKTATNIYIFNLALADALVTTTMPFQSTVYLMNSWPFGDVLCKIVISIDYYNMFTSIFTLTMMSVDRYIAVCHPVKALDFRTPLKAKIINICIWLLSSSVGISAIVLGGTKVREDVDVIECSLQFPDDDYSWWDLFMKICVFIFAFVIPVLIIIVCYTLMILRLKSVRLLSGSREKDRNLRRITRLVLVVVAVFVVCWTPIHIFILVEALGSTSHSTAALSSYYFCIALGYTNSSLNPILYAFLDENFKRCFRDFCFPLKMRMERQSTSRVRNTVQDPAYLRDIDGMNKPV
- experimentalProtocol: Agonist activity at human recombinant kappa opioid receptor expressed in CHO cell membranes after 60 mins by [35S]GTPgammaS binding assay
readoutLabel: EC50

- compound: "CCOC(=O)Cc1c2c(n(Cc3ccccc3)c1O)[C@@H]1Oc3c(O)ccc4c3[C@@]13CCN(C)[C@H](C4)[C@]3(O)C2"
  valueReported: "0.434 µM"

====

- target: Mu-type opioid receptor (Homo sapiens, UniProt P35372)
- Sequence (P35372 whole entry): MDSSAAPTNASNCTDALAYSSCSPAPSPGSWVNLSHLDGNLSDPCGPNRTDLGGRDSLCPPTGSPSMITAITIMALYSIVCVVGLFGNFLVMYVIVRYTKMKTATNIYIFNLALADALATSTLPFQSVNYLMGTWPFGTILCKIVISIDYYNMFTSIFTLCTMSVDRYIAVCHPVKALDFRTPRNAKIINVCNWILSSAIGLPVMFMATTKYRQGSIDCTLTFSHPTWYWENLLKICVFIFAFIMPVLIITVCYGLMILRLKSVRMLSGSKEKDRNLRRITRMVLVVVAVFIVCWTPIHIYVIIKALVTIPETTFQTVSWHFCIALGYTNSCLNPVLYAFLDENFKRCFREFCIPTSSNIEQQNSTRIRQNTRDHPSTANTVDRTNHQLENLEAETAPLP
- experimentalProtocol: Agonist activity at human recombinant mu opioid receptor expressed in CHO cell membranes at 10 uM after 60 mins by [35S]GTPgammaS binding assay relative to DAMGO
- Format: functional
We begin with a simple list: items and their reported Smax.

- compound: "O=C1CCC2=C([C@@H]3Oc4c(O)ccc5c4[C@@]34CCN(CC3CC3)[C@H](C5)[C@]4(O)C2)N1Cc1cccc(Cl)c1"
  target: "Mu-type opioid receptor (Homo sapiens, UniProt P35372)"
  unitsLabel: "%"
  Smax: -1
- compound: "O=C1CCC2=C([C@@H]3Oc4c(O)ccc5c4[C@@]34CCN(CC3CC3)[C@H](C5)[C@]4(O)C2)N1CCc1ccccc1"
  target: "Mu-type opioid receptor (Homo sapiens, UniProt P35372)"
  unitsLabel: "%"
  Smax: 1
- compound: "O=C1CCC2=C([C@@H]3Oc4c(O)ccc5c4[C@@]34CCN(CC3CC3)[C@H](C5)[C@]4(O)C2)N1Cc1ccccc1"
  target: "Mu-type opioid receptor (Homo sapiens, UniProt P35372)"
  unitsLabel: "%"
  Smax: -1
- compound: "O=C1CCC2=C([C@@H]3Oc4c(O)ccc5c4[C@@]34CCN(CC3CC3)[C@H](C5)[C@]4(O)C2)N1CC1CCCCC1"
  target: "Mu-type opioid receptor (Homo sapiens, UniProt P35372)"
  unitsLabel: "%"
  Smax: -1
- compound: "C=CCN1CC[C@]23c4c5ccc(O)c4O[C@H]2C2=C(CCC(=O)N2CCc2ccccc2)C[C@@]3(O)[C@H]1C5"
  target: "Mu-type opioid receptor (Homo sapiens, UniProt P35372)"
  unitsLabel: "%"
  Smax: -2
- compound: "O=C1CCC2=C([C@@H]3Oc4c(O)ccc5c4[C@@]34CCN(CC3CC3)[C@H](C5)[C@]4(O)C2)N1Cc1cccc(F)c1"
  target: "Mu-type opioid receptor (Homo sapiens, UniProt P35372)"
  unitsLabel: "%"
  Smax: -1

====

- target: Delta-type opioid receptor (Homo sapiens)
- Sequence (P41143 whole entry): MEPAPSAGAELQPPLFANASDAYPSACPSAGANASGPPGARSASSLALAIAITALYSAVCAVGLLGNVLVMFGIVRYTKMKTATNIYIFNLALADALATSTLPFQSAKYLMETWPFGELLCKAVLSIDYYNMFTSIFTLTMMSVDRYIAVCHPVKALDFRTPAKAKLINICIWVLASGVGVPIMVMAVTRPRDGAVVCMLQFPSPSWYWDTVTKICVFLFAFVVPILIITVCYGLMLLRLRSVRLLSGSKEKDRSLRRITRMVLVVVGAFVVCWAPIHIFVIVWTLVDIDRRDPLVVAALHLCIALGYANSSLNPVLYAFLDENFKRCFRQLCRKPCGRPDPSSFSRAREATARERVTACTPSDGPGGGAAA
- experimentalProtocol: Antagonist activity at human recombinant delta opioid receptor expressed in CHO cell membranes assessed as inhibition of DPDPE-induced response after 60 mins by [35S]GTPgammaS binding assay
- Format: functional
Rule: Ke below 0.9 nM gives Fulfilled, anything at or above gives Not fulfilled.

- compound: "O=C1[C@@H](CCO)CC2=C([C@@H]3Oc4c(O)ccc5c4[C@@]34CCN(CC3CC3)[C@H](C5)[C@]4(O)C2)N1Cc1ccccc1"
  classification: "Not fulfilled"
- compound: "C[C@@H]1CC2=C([C@@H]3Oc4c(O)ccc5c4[C@@]34CCN(CC3CC3)[C@H](C5)[C@]4(O)C2)N(Cc2ccccc2)C1=O"
  classification: "Fulfilled"
- compound: "O=C1[C@H](CCO)CC2=C([C@@H]3Oc4c(O)ccc5c4[C@@]34CCN(CC3CC3)[C@H](C5)[C@]4(O)C2)N1Cc1ccccc1"
  classification: "Fulfilled"
- compound: "C[C@H]1CC2=C([C@@H]3Oc4c(O)ccc5c4[C@@]34CCN(CC3CC3)[C@H](C5)[C@]4(O)C2)N(Cc2ccccc2)C1=O"
  classification: "Fulfilled"
- compound: "CCOC(=O)Cc1c2c(n(Cc3ccccc3)c1O)[C@@H]1Oc3c(O)ccc4c3[C@@]13CCN(CC1CC1)[C@H](C4)[C@]3(O)C2"
  classification: "Not fulfilled"
